Exercise: state measured Emax for each of the compounds provided.
# study target: Peroxisome proliferator-activated receptor alpha (Homo sapiens) (UniProt Q07869)
# Sequence (Q07869 whole entry, the tested form may be a part): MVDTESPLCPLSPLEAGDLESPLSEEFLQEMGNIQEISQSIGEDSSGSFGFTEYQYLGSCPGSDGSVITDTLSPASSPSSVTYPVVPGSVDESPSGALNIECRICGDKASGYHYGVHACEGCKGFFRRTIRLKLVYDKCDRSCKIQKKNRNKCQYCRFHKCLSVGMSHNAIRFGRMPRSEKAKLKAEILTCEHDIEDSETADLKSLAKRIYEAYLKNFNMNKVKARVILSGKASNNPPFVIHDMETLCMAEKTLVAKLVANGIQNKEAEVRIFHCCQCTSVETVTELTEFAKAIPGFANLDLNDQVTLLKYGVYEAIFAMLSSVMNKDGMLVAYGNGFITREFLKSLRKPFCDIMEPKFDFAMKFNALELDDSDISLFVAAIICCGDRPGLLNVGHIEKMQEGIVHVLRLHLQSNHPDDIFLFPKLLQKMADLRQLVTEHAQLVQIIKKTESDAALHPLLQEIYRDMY
# method summary: Transactivation of human Gal4-fused PPARalpha LBD expressed in African green monkey COS7 cells after 24 hrs by luciferase reporter gene assay relative to WY14643
# Type: cell-based
Answers are plain numbers, in %.

Would you be so kind as to report Emax for each listed record?
1. COc1cc(/C=C/c2ccc3c(c2)sc(=O)n3CCOc2ccc(CC(OCC(F)(F)F)C(=O)O)cc2)cc(OC)c1 (stereo not drawn)
2. CCOC(=O)C(Cc1ccc(OCCn2c(=O)sc3cc(C(=O)/C=C/c4cc(O)cc(O)c4)ccc32)cc1)OCC(F)(F)F (stereo not drawn)
3. CCOC(=O)C(Cc1ccc(OCCn2c(=O)sc3cc(/C=C/c4cc(O)cc(O)c4)ccc32)cc1)OCC(F)(F)F (stereo not drawn)
4. CCOC(Cc1ccc(OCCn2c(=O)sc3cc(/C=C/c4cc(OC)cc(OC)c4)ccc32)cc1)C(N)=O (stereo not drawn)

170
12
149
35
